- test system: PI-3 kinase γ (Homo sapiens, UniProt P48736)
- Sequence (P48736 whole entry): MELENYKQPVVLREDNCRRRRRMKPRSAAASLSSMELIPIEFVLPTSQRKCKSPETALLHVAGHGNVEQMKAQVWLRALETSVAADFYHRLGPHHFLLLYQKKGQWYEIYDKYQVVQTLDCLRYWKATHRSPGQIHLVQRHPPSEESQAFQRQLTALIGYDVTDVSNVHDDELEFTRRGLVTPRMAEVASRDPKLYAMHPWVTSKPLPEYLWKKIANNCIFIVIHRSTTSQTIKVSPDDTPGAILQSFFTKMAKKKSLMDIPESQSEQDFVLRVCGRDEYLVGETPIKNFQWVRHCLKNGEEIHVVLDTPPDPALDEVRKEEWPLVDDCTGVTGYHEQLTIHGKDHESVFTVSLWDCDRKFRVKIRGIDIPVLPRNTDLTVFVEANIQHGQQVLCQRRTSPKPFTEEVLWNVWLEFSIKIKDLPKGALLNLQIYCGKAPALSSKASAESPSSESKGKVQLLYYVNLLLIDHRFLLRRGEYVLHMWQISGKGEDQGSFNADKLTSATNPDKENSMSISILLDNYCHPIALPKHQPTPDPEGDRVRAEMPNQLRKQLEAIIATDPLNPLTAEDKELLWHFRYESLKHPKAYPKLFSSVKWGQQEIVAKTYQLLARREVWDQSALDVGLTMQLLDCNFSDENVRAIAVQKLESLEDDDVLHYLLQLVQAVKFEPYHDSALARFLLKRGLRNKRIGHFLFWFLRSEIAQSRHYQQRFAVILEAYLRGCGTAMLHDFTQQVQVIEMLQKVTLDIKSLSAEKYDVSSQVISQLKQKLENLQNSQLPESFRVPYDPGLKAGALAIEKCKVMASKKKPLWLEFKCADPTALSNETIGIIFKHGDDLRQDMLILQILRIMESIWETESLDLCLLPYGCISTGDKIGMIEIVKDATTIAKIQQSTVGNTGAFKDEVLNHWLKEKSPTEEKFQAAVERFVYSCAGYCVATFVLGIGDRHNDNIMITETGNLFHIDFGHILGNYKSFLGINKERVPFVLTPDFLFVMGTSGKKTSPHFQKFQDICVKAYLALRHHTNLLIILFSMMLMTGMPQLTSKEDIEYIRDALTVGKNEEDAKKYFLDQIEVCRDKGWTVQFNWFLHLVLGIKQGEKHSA
- protocol notes: PI3Kγ inhibitory activity, PI3-kinase HTRF assay (inhibition ratio)
- Assay type: biochemical
- experimental conditions: 0.5 h, compound at 50 μmol/L

[
  {
    "compound": "NCCOc1ccccc1Nc1ccc2c(n1)N(C(=O)Nc1ccccc1)CCO2",
    "inhibition at 50 µM": "≥ 95%"
  },
  {
    "compound": "O=C(O)c1ccc(-c2ccc3c(n2)OCCN3C(=O)Nc2ccccc2C(=O)O)cc1",
    "inhibition at 50 µM": "≥ 95%"
  },
  {
    "compound": "COC(=O)c1ccc(-c2ccc(Nc3cnc4c(c3)OCCN4C(=O)Nc3ccccc3)cc2)cc1",
    "inhibition at 50 µM": "76%"
  },
  {
    "compound": "CC(C)(C)OC(=O)N1CCN(c2cnc3c(c2)OCCN3C(=O)Nc2ccccc2)CC1C(=O)O (centres unmarked)",
    "inhibition at 50 µM": "≥ 95%"
  },
  {
    "compound": "CC(C)(C)OC(=O)NCCOc1cccc(Nc2ccc3c(n2)N(C(=O)Nc2ccccc2)CCO3)c1",
    "inhibition at 50 µM": "≥ 95%"
  },
  {
    "compound": "CC1CN(C(=O)Nc2ccccc2)c2nc(-c3ccc(C(=O)O)cc3)ccc2O1 (centres unmarked)",
    "inhibition at 50 µM": "86%"
  },
  {
    "compound": "CCCCNS(=O)(=O)c1cccc(Nc2cnc3c(c2)OCCN3C(=O)Nc2ccccc2)c1",
    "inhibition at 50 µM": "81%"
  },
  {
    "compound": "O=C(O)c1cccc(NC(=O)c2ccc3c(n2)N(C(=O)Nc2ccccc2)CCO3)c1",
    "inhibition at 50 µM": "≥ 95%"
  }
]
